Tested Target: soluble DQ8 proteins (HLA-DQ8, DQA1*0301/DQB1*0302) (Homo sapiens, UniProt P01909+P01920, A209T/A45G/C70Q/D89A/DUP78-78/E183D/E77G/F237L/G63E/H199R/I129T/K197E/L178F/L74F/L98V/Q57E/Q76R/S185I/S97I/T217I/T49S/V73L/Y58L)
Where a SMILES comes first, the peptide text is derived from it.
Recorded Metric: pIC50
pIC50 here: minus log base 10 of the concentration, concentration in moles per litre.

>>> reading("CC[C@H](C)[C@H](NC(=O)[C@H](CCC(=O)O)NC(=O)[C@H](C)NC(=O)[C@H](CCCNC(=N)N)NC(=O)[C@H](Cc1ccc(O)cc1)NC(=O)[C@H](Cc1c[nH]c2ccccc12)NC(=O)CNC(=O)[C@H](Cc1ccccc1)NC(=O)[C@@H](NC(=O)[C@H](CC(C)C)NC(=O)[C@H](CCCNC(=N)N)NC(=O)[C@H](CCCCN)NC(=O)[C@@H](N)CO)[C@@H](C)O)C(=O)N[C@@H](CC(C)C)C(=O)O [ZnT8 128–141] (H-SKRLTFGWYRAEIL-OH)")
4.69
>>> reading("CC[C@H](C)[C@H](NC(=O)CNC(=O)[C@H](C)NC(=O)[C@H](CCC(N)=O)NC(=O)[C@@H](NC(=O)[C@H](CCC(N)=O)NC(=O)[C@H](Cc1ccc(O)cc1)NC(=O)[C@H](CC(=O)O)NC(=O)[C@@H]1CCCN1C(=O)[C@H](Cc1ccc(O)cc1)NC(=O)[C@@H](N)CC(C)C)[C@@H](C)CC)C(=O)N[C@@H](CCSC)C(=O)N[C@H](C(=O)N[C@H](C(=O)O)[C@@H](C)O)[C@@H](C)CC [ZnT8 166–179] (H-LYPDYQIQAGIMIT-OH)")
6.15

Data request: GET /values?readout=pIC50&item= CC[C@H](C)[C@H](NC(=O)[C@H](C)N)C(=O)N[C@@H](CC(C)C)C(=O)N[C@H](C(=O)N[C@@H](CC(=O)O)C(=O)N[C@@H](C)C(=O)N[C@@H](C)C(=O)N[C@@H](Cc1c[nH]cn1)C(=O)N[C@@H](CC(C)C)C(=O)N[C@@H](CC(C)C)C(=O)N[C@H](C(=O)N[C@@H](CC(=O)O)C(=O)N[C@@H](CC(C)C)C(=O)N[C@H](C(=O)O)[C@@H](C)O)[C@@H](C)CC)[C@@H](C)O [ZnT8 98–111] (H-AILTDAAHLLIDLT-OH)
Data returned: 5.14

* * *

Below, each entry is listed alongside its reported pIC50.
Tested Target: soluble DQ8 proteins (HLA-DQ8, DQA1*0301/DQB1*0302) (Homo sapiens, UniProt P01909+P01920, A209T/A45G/C70Q/D89A/DUP78-78/E183D/E77G/F237L/G63E/H199R/I129T/K197E/L178F/L74F/L98V/Q57E/Q76R/S185I/S97I/T217I/T49S/V73L/Y58L)
Where a SMILES comes first, the peptide text is derived from it.
pIC50 here: minus log base 10 of the concentration, concentration in moles per litre.

>>> reading("CC[C@H](C)[C@H](N)C(=O)N[C@@H](CC(C)C)C(=O)N[C@@H](CO)C(=O)N[C@H](C(=O)N[C@@H](Cc1c[nH]cn1)C(=O)N[C@H](C(=O)N[C@@H](C)C(=O)N[C@H](C(=O)N[C@@H](C)C(=O)N[C@@H](C)C(=O)N[C@@H](CO)C(=O)N[C@@H](CCC(N)=O)C(=O)N[C@@H](CC(=O)O)C(=O)N[C@@H](CO)C(=O)O)[C@@H](C)O)C(C)C)C(C)C [ZnT8 313–326] (H-ILSVHVATAASQDS-OH)")
5.31

We next turn to a different compound, shown below.
Data request: GET /values?readout=pIC50&item= CC[C@H](C)[C@H](NC(=O)[C@H](CCC(N)=O)NC(=O)[C@@H](NC(=O)[C@@H](NC(=O)[C@@H](N)CC(C)C)[C@@H](C)O)[C@@H](C)CC)C(=O)N[C@@H](CCC(=O)O)C(=O)N[C@@H](CO)C(=O)N[C@@H](C)C(=O)N[C@@H](C)C(=O)N[C@@H](CC(=O)O)C(=O)N[C@@H](CCC(N)=O)C(=O)N[C@@H](CC(=O)O)C(=O)N1CCC[C@H]1C(=O)N[C@@H](CO)C(=O)O [ZnT8 345–358] (H-LTIQIESAADQDPS-OH)
Data returned: 5.60
